biological target: MAGI1_5, Q96QZ7; assay: holdup assay; set-up: key: below the threshold = too weak to quantify, mostly under pKd 3.1 to 4; conditions: plain residues with an end cap or a label only (N-terminal biotin on a linker: ttds)
Sequence (Q96QZ7 986-1098): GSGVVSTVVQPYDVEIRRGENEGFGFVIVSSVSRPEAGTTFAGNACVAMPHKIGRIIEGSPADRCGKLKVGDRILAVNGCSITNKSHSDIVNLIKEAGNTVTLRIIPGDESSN
MEASUREMENT TYPE: pKd

BINDER	MEASUREMENT TYPE	VALUE MEASURED
SRSRRRETAL [HPV33-E6, P06427]	pKd	below the threshold
PSRDRKETSI [RALBP1, Q15311]	pKd	below the threshold
SHSSKGETAV [FZD7, O75084]	pKd	below the threshold
PPRQRSETQV [HPV82-E6, Q9IR59]	pKd	4.37

Hey, just so you know, these numbers are from paper PMC9482650.
